These records show IC50 for Xanthine dehydrogenase/oxidase (Bos taurus, UniProt P80457).
One number for each entry, in µM.

STRUCTURE STRING: [C-]#[N+]c1cn(-c2ccc(C(=O)O)c(O)c2)c2cscc12
METRIC NAME: IC50
RESULT: 0.01

--- query ---
GET /values?readout=IC50&item= [C-]#[N+]c1cn(-c2ccc(C(=O)O)c(O)c2)c2sccc12
0.013

Reference for the values: ChEMBL document CHEMBL3638714
